For each entry below, report its IC50 value.
# tested.target: Avi-KRAS G12V (2-169) GTP/RAF1 RBD-3xFLAG (51-131) (Homo sapiens, UniProt P01116, G12V)
# Construct: Avi-KRAS G12V (2-169)
# Sequence (P01116 2-169 isoform P01116-2 G12V): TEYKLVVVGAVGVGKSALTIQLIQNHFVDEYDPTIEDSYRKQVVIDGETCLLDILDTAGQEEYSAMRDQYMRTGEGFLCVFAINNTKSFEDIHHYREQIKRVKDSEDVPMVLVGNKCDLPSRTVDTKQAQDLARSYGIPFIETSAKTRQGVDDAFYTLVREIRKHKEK
# test.protocol: Raf1-KRAS G12V-GTP disruption HTRF assay (Biological Example 3)
# Format: binding
# settings: KRAS G12V-GTP / RAF1 RBD HTRF

Fill in: Avi-KRAS G12V (2-169) GTP/RAF1 RBD-3xFLAG (51-131) (Homo sapiens, UniProt P01116, G12V) IC50 for CCN(c1nc(OC[C@@]23CCCN2C[C@H](F)C3)nc2c(F)c(-c3ccc(F)c4sc(N)c(C#N)c34)c(C(F)(F)F)cc12)[C@H]1CCN(c2nccs2)C1 [Compound 973] = 100 to 1000 nM

Fill in: Avi-KRAS G12V (2-169) GTP/RAF1 RBD-3xFLAG (51-131) (Homo sapiens, UniProt P01116, G12V) IC50 for CN(c1nc(OC[C@@]23CCCN2C[C@H](F)C3)nc2c(F)c(-c3ccc(F)c4sc(N)c(C#N)c34)c(C(F)(F)F)cc12)[C@@H]1CCCc2ccncc21 (atropisomer, axis not shown) [Compound 972] = 100 to 1000 nM

----------
# tested.target: Avi-KRAS G12D (1-169) GppNHp/RAF1 RBD-3xFLAG (52-151) (Homo sapiens, UniProt P01116, G12D)
# Construct: Avi-KRAS G12D (1-169)
# Sequence (P01116 1-169 isoform P01116-2 G12D): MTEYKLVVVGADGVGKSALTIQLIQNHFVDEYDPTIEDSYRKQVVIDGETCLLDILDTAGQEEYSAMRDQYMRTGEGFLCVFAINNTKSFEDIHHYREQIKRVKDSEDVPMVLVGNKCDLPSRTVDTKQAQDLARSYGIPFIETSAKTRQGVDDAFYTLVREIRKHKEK
# test.protocol: Raf1-KRAS G12D-GppNHP disruption HTRF assay (Biological Example 1)
# Assay type: binding
# settings: KRAS G12D-GppNHp/RAF1 RBD HTRF
pIC50: −log10 of the molar value.
For each entry below, report its pIC50 value.

Just so you know, measured pIC50 for N#Cc1nnn2c1CN(c1nc(OC[C@@]34CCCN3C[C@H](F)C4)nc3c(F)c(-c4ccc(F)c5sc(N)c(C#N)c45)c(C(F)(F)F)cc13)CC2 came out at 6.00 to 7.00

Just so you know, measured pIC50 for N#Cc1c(N)sc2c(F)ccc(-c3c(C(F)(F)F)cc4c(N5C[C@H]6C[C@@H]5CS6(=O)=O)nc(OC[C@@]56CCCN5C[C@H](F)C6)nc4c3F)c12 came out at 6.00 to 7.00

Just so you know, measured pIC50 for CC(=O)N1CC[C@@H]2[C@H]1CN2c1nc(OC[C@@]23CCCN2C[C@H](F)C3)nc2c(F)c(-c3ccc(F)c4sc(N)c(C#N)c34)c(C(F)(F)F)cc12 came out at 6.00 to 7.00

Just so you know, measured pIC50 for N#Cc1c(N)sc2c(F)ccc(-c3c(C(F)(F)F)cc4c(N5CCO[C@@H](CO)C5)nc(OC[C@@]56CCCN5C[C@H](F)C6)nc4c3F)c12 came out at > 7.00

Just so you know, measured pIC50 for CCN(c1nc(OC[C@@]23CCCN2C[C@H](F)C3)nc2c(F)c(-c3ccc(F)c4sc(N)c(C#N)c34)c(C(F)(F)F)cc12)[C@H]1CCN(C(=O)C(C)C)C1 [Compound 332] came out at > 7.00

Just so you know, measured pIC50 for Cc1cc2n(n1)CCN(c1nc(OCC34CCCN3CC(F)C4)nc3c(F)c(-c4ccc(F)c5sc(N)c(C#N)c45)c(C(F)(F)F)cc13)C2 (stereo not drawn) came out at 5.00 to 6.00

Just so you know, measured pIC50 for N#Cc1c(N)sc2c(F)ccc(-c3c(C(F)(F)F)cc4c(N5CCN6C(=O)CCC6C5)nc(OCC56CCCN5CC(F)C6)nc4c3F)c12 (stereo not drawn) [Compound 430] came out at 6.00 to 7.00

Just so you know, measured pIC50 for CC(=O)N1C[C@@H](N(C)c2nc(OC[C@@]34CCCN3C[C@H](F)C4)nc3c(F)c(-c4ccc(F)c5sc(N)c(C#N)c45)c(C(F)(F)F)cc23)C[C@H]1CC#N came out at 6.00 to 7.00

Just so you know, measured pIC50 for CCN(c1nc(OC[C@@]23CCCN2C[C@H](F)C3)nc2c(F)c(-c3ccc(F)c4sc(N)c(C#N)c34)c(Cl)cc12)[C@@H]1CCN(C(C)=O)[C@H]1C came out at 6.00 to 7.00

----------
# tested.target: Avi-KRAS G12R (1-169) GppNHp/RAF1 RBD-3xFLAG (52-151) (Homo sapiens, UniProt P01116, G12R)
# Construct: Avi-KRAS G12R (1-169)
# Sequence (P01116 1-169 isoform P01116-2 G12R): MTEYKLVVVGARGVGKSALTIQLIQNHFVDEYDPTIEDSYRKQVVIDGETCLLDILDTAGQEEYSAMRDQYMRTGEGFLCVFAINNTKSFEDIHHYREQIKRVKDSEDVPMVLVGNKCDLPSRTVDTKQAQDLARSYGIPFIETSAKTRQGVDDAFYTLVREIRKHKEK
# test.protocol: Raf1-KRAS G12R-GppNHP disruption HTRF assay (Biological Example 1)
# Type: binding
# settings: KRAS G12R, GppNHp-loaded; Table 11
# Experimental: A protein:protein interaction (PPI) Homogeneous Time Resolved Fluorescence (HTRF) assay was used to determine the effectiveness of compounds of the present disclosure in disrupting KRAS protein and effector RAF1 binding. The assay buffer included: 50 mM Tris pH 7.5, 100 mM NaCl, 5 mM MgCl2, 0.1% BSA, 0.01% Tween, and 10% DMSO. The bead buffer included: 50 mM Tris pH 7.5, and 0.01% Tween 20. […] Data was reported as percentage of activity, with DMSO as 100%. Data was plotted and analyzed using Prism 8.
pIC50: −log10 of the molar value.
For each entry below, report its pIC50 value.

Fill in: Avi-KRAS G12R (1-169) GppNHp/RAF1 RBD-3xFLAG (52-151) (Homo sapiens, UniProt P01116, G12R) pIC50 for C[C@H]1[C@@H](N(C)c2nc(OC[C@@]34CCCN3C[C@H](F)C4)nc3c(F)c(-c4ccc(F)c5sc(N)c(C#N)c45)c(C(F)(F)F)cc23)CCN1C(=O)CO [Compound 240] = 5.00 to 6.00

Fill in: Avi-KRAS G12R (1-169) GppNHp/RAF1 RBD-3xFLAG (52-151) (Homo sapiens, UniProt P01116, G12R) pIC50 for CN(c1nc(OC[C@@]23CCCN2C[C@H](F)C3)nc2cc(-c3ccc(F)c4sc(N)c(C#N)c34)c(C(F)(F)F)cc12)[C@H]1C[C@@H](O)C1 [Compound 33] = 6.00 to 7.00

Fill in: Avi-KRAS G12R (1-169) GppNHp/RAF1 RBD-3xFLAG (52-151) (Homo sapiens, UniProt P01116, G12R) pIC50 for C[C@H]1COC[C@H](C)N1c1nc(OC[C@@]23CCCN2C[C@H](F)C3)nc2c(F)c(-c3ccc(F)c4sc(N)c(C#N)c34)c(C(F)(F)F)cc12 [Compound 200] = 5.00 to 6.00

Fill in: Avi-KRAS G12R (1-169) GppNHp/RAF1 RBD-3xFLAG (52-151) (Homo sapiens, UniProt P01116, G12R) pIC50 for CN(c1nc(OC[C@@]23CCCN2C[C@H](F)C3)nc2c(F)c(-c3ccc(F)c4sc(N)c(C#N)c34)c(C(F)(F)F)cc12)C1CCC(O)CC1 (some centres unmarked) [Compound 65] = 6.00 to 7.00

Fill in: Avi-KRAS G12R (1-169) GppNHp/RAF1 RBD-3xFLAG (52-151) (Homo sapiens, UniProt P01116, G12R) pIC50 for N#Cc1c(N)sc2c(F)ccc(-c3c(C(F)(F)F)cc4c(N5C[C@@H](F)[C@@H](F)C5)nc(OC[C@@]56CCCN5C[C@H](F)C6)nc4c3F)c12 [Compound 157] = 6.00 to 7.00

----------
# System: SW620 cells (KRAS G12V)
# test.protocol: Cell-based pERK HTRF assay in SW620 cell (Biological Example 4)
# settings: Homo sapiens, SW-620, SW620 (KRAS G12V) cells, pERK HTRF
readout.type: IC50

Just so you know, measured IC50 for N#Cc1c(N)sc2c(F)ccc(-c3c(C(F)(F)F)cc4c(N5C6CC5CS(=O)(=O)C6)nc(OC[C@@]56CCCN5C[C@H](F)C6)nc4c3F)c12 came out at 100 to 1000 nM

Just so you know, measured IC50 for N#Cc1c(N)sc2c(F)ccc(-c3c(C(F)(F)F)cc4c(N5CCC5)nc(OC[C@@]56CCCN5C[C@H](F)C6)nc4c3F)c12 came out at < 100 nM

Just so you know, measured IC50 for N#Cc1c(N)sc2c(F)ccc(-c3c(C(F)(F)F)cc4c(N5CCc6oncc6C5)nc(OC[C@@]56CCCN5C[C@H](F)C6)nc4c3F)c12 came out at < 100 nM

Just so you know, measured IC50 for CN(c1nc(OC[C@@]23CCCN2C[C@H](F)C3)nc2c(F)c(-c3ccc(F)c4sc(N)c(C#N)c34)c(C(F)(F)F)cc12)C1CC(F)C1 (some centres unmarked) came out at < 100 nM

Just so you know, measured IC50 for CN(C)C(=O)c1nc2c(s1)CN(c1nc(OCC34CCCN3CC(F)C4)nc3c(F)c(-c4ccc(F)c5sc(N)c(C#N)c45)c(C(F)(F)F)cc13)CC2 (centres unmarked) came out at < 100 nM

Just so you know, measured IC50 for CCC(=O)N1CC[C@@H](N(CC)c2nc(OC[C@@]34CCCN3C[C@H](F)C4)nc3c(F)c(-c4ccc(F)c5sc(N)c(C#N)c45)c(Cl)cc23)[C@@H]1C came out at 100 to 1000 nM

Just so you know, measured IC50 for CC(=O)N1C[C@H](N(C)c2nc(OC[C@@]34CCCN3C[C@H](F)C4)nc3c(F)c(-c4ccc(F)c5sc(N)c(C#N)c45)c(C(F)(F)F)cc23)C[C@@H]1C came out at < 100 nM

Just so you know, measured IC50 for CN1CCN(c2nc(OC[C@@]34CCCN3C[C@H](F)C4)nc3c(F)c(-c4ccc(F)c5sc(N)c(C#N)c45)c(C(F)(F)F)cc23)CC1=O came out at < 100 nM

Just so you know, measured IC50 for CC(=O)N1C[C@@H]2CC[C@H]1CN2c1nc(OC[C@@]23CCCN2C[C@H](F)C3)nc2c(F)c(-c3ccc(F)c4sc(N)c(C#N)c34)c(C(F)(F)F)cc12 came out at 100 to 1000 nM

Just so you know, measured IC50 for CC(=O)N1CC[C@@H](N(C)c2nc(OC[C@@]34CCCN3C[C@H](F)C4)nc3c(F)c(-c4ccc(F)c5sc(N)c(C#N)c45)c(C(F)(F)F)cc23)C1 came out at < 100 nM

Just so you know, measured IC50 for CC(=O)N(C)[C@@H]1CCN(c2nc(OC[C@@]34CCCN3C[C@H](F)C4)nc3c(F)c(-c4ccc(F)c5sc(N)c(C#N)c45)c(C(F)(F)F)cc23)C1 came out at 100 to 1000 nM
